# System: SNB-19 CNS
# testProtocol: NCI tumour cell line growth inhibition, 48 h
Measured TGI accompanies every entry in the list below.
resultType: TGI

1. O=C(NCCCN(CCCCN(CCCNC(=O)c1cc(S(=O)(=O)O)cc(O)c1O)C(=O)c1cc(S(=O)(=O)O)cc(O)c1O)C(=O)c1cc(S(=O)(=O)O)cc(O)c1O)c1cc(S(=O)(=O)O)cc(O)c1O | > 100 µM
2. O=C1CC(CC(OCc2ccccc2)C(OCc2ccccc2)C(COCc2ccccc2)OCc2ccccc2)CC(=O)N1 (centres undefined) | > 100 µM
3. O=C(CN=C(CN(c1ccccc1)c1ccccc1)Oc1ccc(Cl)cc1Cl)n1ccnc1 | > 100 µM
4. Cc1ccccc1C(C(=O)NC1CCCCC1)N(C(=O)CNc1ncccc1F)c1cccc(F)c1 (centres undefined) | > 87.3 µM
5. O=c1[nH]c2c(c(=O)[nH]1)C(c1ccc([N+](=O)[O-])cc1)c1c([nH]c(=O)[nH]c1=O)O2 | > 100 µM
6. CC(=O)n1[nH]c(=O)n(-c2ccccc2)c1=O | > 100 µM
7. CCOC(=O)N/N=C(\CC)OCC | > 100 µM
8. CN(C)CCNC(=O)c1ccc2oc3cc4ccccc4c(=O)n3c2c1 | > 100 µM
9. N#CC1=C(N)Oc2c(sc3c(Br)cccc23)C1c1ccc(Cl)cc1 (centres undefined) | 12.8 µM
